system-under-test: MMP-8 (Neutrophil collagenase) (Homo sapiens, UniProt P22894)
Sequence (P22894 101-467, species assumed): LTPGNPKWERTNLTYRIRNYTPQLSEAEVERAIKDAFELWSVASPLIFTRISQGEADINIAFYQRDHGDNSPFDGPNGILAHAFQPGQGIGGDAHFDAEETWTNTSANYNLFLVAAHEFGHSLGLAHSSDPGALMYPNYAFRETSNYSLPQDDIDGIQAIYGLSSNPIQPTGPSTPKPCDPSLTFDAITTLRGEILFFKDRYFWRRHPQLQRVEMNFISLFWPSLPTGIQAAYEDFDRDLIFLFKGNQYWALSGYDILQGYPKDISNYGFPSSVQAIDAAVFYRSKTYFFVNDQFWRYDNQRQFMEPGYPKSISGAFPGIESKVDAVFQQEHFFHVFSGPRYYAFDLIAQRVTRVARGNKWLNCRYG
assay-info: In vitro metalloprotease inhibition, MMP-8
parameter-measured: IC50

Problem: // IC50 lookup, key: `O=C(NO)[C@H]1CN(C(=O)N2CCOCC2)CCN1S(=O)(=O)c1cc(F)c(Oc2ccc(Cl)cc2)c(F)c1`
Solution: < 50 nM

###

Record type: IC50 measurement. Applies to: MMP-3 (Stromelysin-1) (Homo sapiens, UniProt P08254)

Problem: Consider the molecule `O=C(NO)[C@H]1CN(S(=O)(=O)Cc2cc(Cl)cc(Cl)c2)CCN1S(=O)(=O)c1cc(F)c(Oc2ccc(Cl)cc2)c(F)c1` and give its measured IC50.
Solution: > 20000 nM

Problem: Form field: reported IC50 of `CN(C)CCS(=O)(=O)N1CCN(S(=O)(=O)c2cc(F)c(Oc3ccc(Cl)cc3)c(F)c2)[C@@H](C(=O)NO)C1`
Solution: < 50 nM

Problem: Data request, read-out IC50, for `COCCOC(=O)N1CCN(S(=O)(=O)c2ccc(Oc3ccc(F)cc3)c(F)c2)[C@@H](C(=O)NO)C1`
Solution: 1000 to 20000 nM

Problem: Please report the recorded IC50 for `CN1CCN(CCS(=O)(=O)N2CCN(S(=O)(=O)c3cc(F)c(Oc4ccc(Cl)cc4)c(F)c3)[C@@H](C(=O)NO)C2)CC1` .
Solution: 50 to 1000 nM

###

Would you mind telling me the reported pIC50 of each entry?
system-under-test: MMP-1 (Fibroblast collagenase) (Homo sapiens, UniProt P03956)
Sequence (P03956 100-469, species assumed): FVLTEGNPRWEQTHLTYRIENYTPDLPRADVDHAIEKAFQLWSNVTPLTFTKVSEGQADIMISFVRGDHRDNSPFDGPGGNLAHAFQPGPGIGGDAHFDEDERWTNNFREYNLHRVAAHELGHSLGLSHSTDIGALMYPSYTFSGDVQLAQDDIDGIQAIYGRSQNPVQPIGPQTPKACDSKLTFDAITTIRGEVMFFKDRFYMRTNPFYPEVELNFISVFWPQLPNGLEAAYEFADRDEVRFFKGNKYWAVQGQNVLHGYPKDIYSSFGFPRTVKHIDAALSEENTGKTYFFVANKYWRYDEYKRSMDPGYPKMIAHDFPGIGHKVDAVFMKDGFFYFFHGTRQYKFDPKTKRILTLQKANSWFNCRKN
assay-info: In vitro metalloprotease inhibition, MMP-1
Type: biochemical
pIC50: −log10 of the molar value.

Problem: # lookup: pIC50 of COCCOC(=O)N1CCN(S(=O)(=O)c2cc(F)c(Oc3ccc(Cl)cc3)c(F)c2)[C@@H](C(=O)NO)C1 [Entry 15]
Solution: 4.70 to 6.00

Problem: Entry COCCOC(=O)N1CCN(S(=O)(=O)c2ccc(Oc3ccc4c(c3)CCCC4)nc2)[C@@H](C(=O)NO)C1 [Entry 64] has what pIC50?
Solution: 6.00 to 7.30

Problem: pIC50 lookup needed for O=C(NO)[C@H]1CN(C(=O)Cc2cccnc2)CCN1S(=O)(=O)c1cc(F)c(Oc2ccc(Cl)cc2)c(F)c1 [Entry 47] , thanks.
Solution: < 4.70

Problem: Would you kindly share the measured pIC50 for CN1CCN(C(=O)NS(=O)(=O)N2CCN(S(=O)(=O)c3cc(F)c(Oc4ccc(Cl)cc4)c(F)c3)[C@@H](C(=O)NO)C2)CC1 [Entry 39] ?
Solution: 6.00 to 7.30
